Test system: Fc region (Jackson ImmunoResearch Laboratories, Inc.) labeled with horseradish peroxidase (HRP)
Assay: ELISA of recombinant phages displaying polypeptides (Example 2, 6)
Type: binding, human
Details: recombinant T7 phage displaying the polypeptide; absorbance at 415 nm; control 0.11
Experimental: 6) In this section, it will be stated as an example that the binding activity of recombinant phages transformed by nucleic acids encoding amino acid sequences represented by SEQ ID NOs: 26, 27, 30 to 55, 57, 63 to 72 and 79 to 81 was measured by Enzyme Linked Immuno-Sorbent Assay (ELISA). […]
readout kind: O.D. 415

32 (DAAWHLGELVWATYYDPETGTWLPDWDVMVRQ; IgG binding peptide, pep27) [compound 32] | 0.352
33 (DAAWHLGELVWATYYDPETGTWVPDWERMKQH; IgG binding peptide, pep31) [compound 33] | 0.305
36 (DAAWHLGELVWATYYDPETGTWKPDWRMMGVP; IgG binding peptide, pep3) [compound 36] | 0.287
31 (DAAWHLGELVWATYYDPETGTWQPDWDIMAGH; IgG binding peptide, pep25) [compound 31] | 0.295
35 (DAAWHLGELVWATYYDPETGTWRPDWAVMATP; IgG binding peptide, pep2) [compound 35] | 0.32
30 (DAAWHLGELVWATYYDPETGTWEPDWKLMQRP; IgG binding peptide, pep7) [compound 30] | 0.287
